- measurementTarget: IRAK1 (Homo sapiens)
- Construct: purchased Eurofins Pharma Discovery Services (KinaseProfiler; Cerep BioPrint panel)
- Sequence (P51617 whole entry): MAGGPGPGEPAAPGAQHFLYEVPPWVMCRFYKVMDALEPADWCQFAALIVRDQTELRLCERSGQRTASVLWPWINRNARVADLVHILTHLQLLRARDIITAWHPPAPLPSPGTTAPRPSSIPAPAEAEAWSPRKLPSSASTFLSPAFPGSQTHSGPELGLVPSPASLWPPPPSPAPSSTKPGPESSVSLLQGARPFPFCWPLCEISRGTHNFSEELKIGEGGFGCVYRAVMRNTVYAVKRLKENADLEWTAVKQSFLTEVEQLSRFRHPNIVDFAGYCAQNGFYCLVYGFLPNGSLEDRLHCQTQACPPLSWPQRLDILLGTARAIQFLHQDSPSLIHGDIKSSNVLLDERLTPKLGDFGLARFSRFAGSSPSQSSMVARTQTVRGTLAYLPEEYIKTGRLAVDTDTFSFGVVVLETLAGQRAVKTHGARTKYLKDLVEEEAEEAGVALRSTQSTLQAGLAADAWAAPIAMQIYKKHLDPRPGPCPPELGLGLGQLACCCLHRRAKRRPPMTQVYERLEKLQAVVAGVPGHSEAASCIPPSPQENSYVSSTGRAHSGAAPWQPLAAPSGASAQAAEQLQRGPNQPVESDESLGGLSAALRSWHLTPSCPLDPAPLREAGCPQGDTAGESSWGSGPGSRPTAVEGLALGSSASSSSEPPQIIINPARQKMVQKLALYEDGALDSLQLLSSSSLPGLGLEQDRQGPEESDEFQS
- measurementDescription: kinase selectivity panel
- Assay type: biochemical
- runParameters: read-out: percentage of control activity (POC), IRAK1
property: remaining activity at 10 µM (%)
One number for each entry, in %.

molecule="COc1c(NC(=O)c2ccc(C)c(-c3nnc4c(NCC(C)(C)C)nccn34)c2)cc(C(C)(C)C)cc1NS(C)(=O)=O [compound 7, reference compound]" unit=% numericreadout=95

Value sought for every listed molecule: remaining activity at 10 µM.
1. Cn1cc(-c2cccc(-c3nc(C(=O)NC4C5CC6CC4CC(O)(C6)C5)c(N)nc3N)c2)cn1 (centres unmarked)
2. CS(=O)(=O)N1CCN(c2ccc(Nc3ncc(C(N)=O)c(NC4CC4)n3)cc2)CC1
3. Cc1ccc(C(=O)NCC2CC2)cc1-c1ccc2c(c1)NC(=O)C21CCCC1
4. CC(C)(C)N1CCC(c2cc(-c3ccc(F)cc3Cl)c3cc[n+]([O-])c(-c4c(Cl)cccc4Cl)c3n2)CC1

RESULT:
[89, 20, 91, 102]

* * *

- measurementTarget: Hck (Homo sapiens)
- Construct: Eurofins Pharma Discovery Services (contract assay service)
- Sequence (P08631 whole entry, species assumed): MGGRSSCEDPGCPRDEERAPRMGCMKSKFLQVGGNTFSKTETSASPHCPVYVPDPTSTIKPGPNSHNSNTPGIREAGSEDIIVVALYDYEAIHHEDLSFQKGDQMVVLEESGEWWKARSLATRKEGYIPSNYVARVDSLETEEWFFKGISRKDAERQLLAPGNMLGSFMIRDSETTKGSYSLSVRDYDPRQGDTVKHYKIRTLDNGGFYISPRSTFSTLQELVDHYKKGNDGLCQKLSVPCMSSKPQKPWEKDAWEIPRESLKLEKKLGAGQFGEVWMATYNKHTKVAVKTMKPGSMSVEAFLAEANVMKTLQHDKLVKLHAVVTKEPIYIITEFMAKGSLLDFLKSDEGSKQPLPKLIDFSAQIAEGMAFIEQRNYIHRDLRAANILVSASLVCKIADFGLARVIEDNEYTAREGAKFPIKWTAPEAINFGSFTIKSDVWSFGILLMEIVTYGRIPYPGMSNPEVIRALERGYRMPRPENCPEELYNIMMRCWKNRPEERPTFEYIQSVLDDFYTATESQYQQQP
- measurementDescription: kinase selectivity panel
- Assay type: biochemical
- runParameters: biochemical dose response, duplicate; read-out: Inhibition of indicated activity (IC50, μM): Hck
property: IC50

QUERY: Name the reported IC50 value associated with the compound Cn1cc(-c2cccc(-c3nc(C(=O)NC4C5CC6CC4CC(O)(C6)C5)c(N)nc3N)c2)cn1 (stereo not shown)
RESULT: 3.58 µM

* * *

- measurementTarget: cKit (Homo sapiens, UniProt P10721)
- Construct: purchased Eurofins Pharma Discovery Services (KinaseProfiler; Cerep BioPrint panel)
- Sequence (P10721 26-976): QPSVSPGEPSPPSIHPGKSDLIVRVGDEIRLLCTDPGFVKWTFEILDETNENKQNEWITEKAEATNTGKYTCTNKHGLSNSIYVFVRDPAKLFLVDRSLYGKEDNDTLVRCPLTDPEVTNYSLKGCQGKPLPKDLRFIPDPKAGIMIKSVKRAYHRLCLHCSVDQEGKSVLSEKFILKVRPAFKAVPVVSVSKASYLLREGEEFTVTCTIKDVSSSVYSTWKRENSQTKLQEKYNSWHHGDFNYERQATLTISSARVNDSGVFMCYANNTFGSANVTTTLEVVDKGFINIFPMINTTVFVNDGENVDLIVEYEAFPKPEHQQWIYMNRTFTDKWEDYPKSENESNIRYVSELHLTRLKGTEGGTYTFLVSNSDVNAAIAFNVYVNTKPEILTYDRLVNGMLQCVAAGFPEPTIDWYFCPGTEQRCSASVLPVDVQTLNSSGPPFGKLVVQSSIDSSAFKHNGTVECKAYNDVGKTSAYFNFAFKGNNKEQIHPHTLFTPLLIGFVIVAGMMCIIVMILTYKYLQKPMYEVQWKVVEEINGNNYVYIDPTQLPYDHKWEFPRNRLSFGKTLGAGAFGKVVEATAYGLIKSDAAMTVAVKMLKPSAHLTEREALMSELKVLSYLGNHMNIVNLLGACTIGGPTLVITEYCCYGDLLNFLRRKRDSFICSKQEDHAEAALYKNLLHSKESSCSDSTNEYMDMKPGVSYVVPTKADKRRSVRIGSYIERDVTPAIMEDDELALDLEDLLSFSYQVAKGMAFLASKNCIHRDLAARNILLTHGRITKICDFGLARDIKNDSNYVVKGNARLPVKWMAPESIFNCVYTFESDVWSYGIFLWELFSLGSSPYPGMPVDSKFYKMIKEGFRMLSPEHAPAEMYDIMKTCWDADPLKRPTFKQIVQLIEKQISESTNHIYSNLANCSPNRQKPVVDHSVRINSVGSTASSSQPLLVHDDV
- measurementDescription: kinase selectivity panel
- Assay type: biochemical
- runParameters: read-out: percentage of control activity (POC), cKit
Could you please mark Fulfilled for values of remaining activity at 10 µM below 90% and Not fulfilled for values at or above it?

Sample answers from the record:
compound="CC(C)(C)N1CCC(c2cc(-c3ccc(F)cc3Cl)c3cc[n+]([O-])c(-c4c(Cl)cccc4Cl)c3n2)CC1 [compound 2]" assignedlabel="Not fulfilled"
compound="Cn1cc(-c2cccc(-c3nc(C(=O)NC4C5CC6CC4CC(O)(C6)C5)c(N)nc3N)c2)cn1 (centres unmarked) [compound 4]" assignedlabel="Not fulfilled"

Then this compound:
QUERY: Consider the compound CS(=O)(=O)N1CCN(c2ccc(Nc3ncc(C(N)=O)c(NC4CC4)n3)cc2)CC1 [compound 5] . Is its remaining activity at 10 µM strictly less than 90%?
RESULT: Fulfilled

* * *

- measurementTarget: IGF-1R (Homo sapiens, UniProt P08069)
- Construct: purchased Eurofins Pharma Discovery Services (KinaseProfiler; Cerep BioPrint panel)
- Sequence (P08069 31-1367): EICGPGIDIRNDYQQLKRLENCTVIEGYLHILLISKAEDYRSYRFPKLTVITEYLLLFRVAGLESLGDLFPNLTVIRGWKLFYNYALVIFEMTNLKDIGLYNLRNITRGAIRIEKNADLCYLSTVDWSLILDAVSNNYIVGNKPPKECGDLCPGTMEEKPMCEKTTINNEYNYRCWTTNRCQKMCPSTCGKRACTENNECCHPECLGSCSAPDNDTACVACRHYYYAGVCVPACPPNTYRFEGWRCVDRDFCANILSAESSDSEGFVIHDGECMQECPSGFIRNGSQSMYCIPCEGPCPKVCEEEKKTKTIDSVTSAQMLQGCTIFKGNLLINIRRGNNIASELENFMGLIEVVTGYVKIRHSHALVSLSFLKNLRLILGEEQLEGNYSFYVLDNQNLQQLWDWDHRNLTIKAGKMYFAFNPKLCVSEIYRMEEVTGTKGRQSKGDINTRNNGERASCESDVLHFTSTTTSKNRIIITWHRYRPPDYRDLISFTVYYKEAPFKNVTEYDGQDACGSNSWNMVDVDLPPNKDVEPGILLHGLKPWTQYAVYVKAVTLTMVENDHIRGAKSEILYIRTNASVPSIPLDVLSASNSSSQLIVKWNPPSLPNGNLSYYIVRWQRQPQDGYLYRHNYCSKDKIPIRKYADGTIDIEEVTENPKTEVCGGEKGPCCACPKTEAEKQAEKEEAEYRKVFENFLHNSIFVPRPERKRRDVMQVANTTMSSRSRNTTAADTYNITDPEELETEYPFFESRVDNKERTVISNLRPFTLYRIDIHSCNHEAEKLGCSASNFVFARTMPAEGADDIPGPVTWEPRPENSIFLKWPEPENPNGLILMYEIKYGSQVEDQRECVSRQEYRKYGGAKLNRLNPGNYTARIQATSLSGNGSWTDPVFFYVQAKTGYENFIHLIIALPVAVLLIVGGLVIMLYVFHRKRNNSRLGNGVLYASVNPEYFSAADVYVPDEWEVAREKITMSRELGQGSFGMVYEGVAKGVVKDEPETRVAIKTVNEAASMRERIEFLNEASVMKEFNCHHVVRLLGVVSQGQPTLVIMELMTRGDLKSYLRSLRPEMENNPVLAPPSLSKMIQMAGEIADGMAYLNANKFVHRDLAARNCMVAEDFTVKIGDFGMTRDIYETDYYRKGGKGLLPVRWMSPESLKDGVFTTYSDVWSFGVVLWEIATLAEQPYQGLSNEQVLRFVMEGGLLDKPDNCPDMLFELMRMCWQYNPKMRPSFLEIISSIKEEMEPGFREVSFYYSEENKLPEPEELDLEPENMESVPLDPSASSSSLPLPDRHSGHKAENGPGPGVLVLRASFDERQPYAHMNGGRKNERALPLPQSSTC
- measurementDescription: kinase selectivity panel
- Assay type: biochemical
- runParameters: read-out: percentage of control activity (POC), IGF-1R
Could you please mark Met for values of remaining activity at 10 µM below 90% and Not met for values at or above it?

molecule="COc1c(NC(=O)c2ccc(C)c(-c3nnc4c(NCC(C)(C)C)nccn34)c2)cc(C(C)(C)C)cc1NS(C)(=O)=O [compound 7, reference compound]" assignedlabel="Not met"
molecule="Cn1cc(-c2cccc(-c3nc(C(=O)NC4C5CC6CC4CC(O)(C6)C5)c(N)nc3N)c2)cn1 (centres unmarked)" assignedlabel="Not met"
molecule=CC(C)(C)N1CCC(c2cc(-c3ccc(F)cc3Cl)c3cc[n+]([O-])c(-c4c(Cl)cccc4Cl)c3n2)CC1 assignedlabel="Not met"

Then this molecule:
QUERY: Consider the molecule CS(=O)(=O)N1CCN(c2ccc(Nc3ncc(C(N)=O)c(NC4CC4)n3)cc2)CC1 . Is its remaining activity at 10 µM strictly less than 90%?
RESULT: Met
